molecular target: PLK1 (Homo sapiens); construct: Full-length, active GST-PLK1 is purified from Sf9 insect cells; made in house; host or cells: Sf9 insect cells; experiment: Biochemical Characterization Assay: HTRF kinase assay, GST-PLK1 phosphorylation of GST-p53; settings: GST-PLK1, GST-p53 substrate
Sequence (P53350 whole entry): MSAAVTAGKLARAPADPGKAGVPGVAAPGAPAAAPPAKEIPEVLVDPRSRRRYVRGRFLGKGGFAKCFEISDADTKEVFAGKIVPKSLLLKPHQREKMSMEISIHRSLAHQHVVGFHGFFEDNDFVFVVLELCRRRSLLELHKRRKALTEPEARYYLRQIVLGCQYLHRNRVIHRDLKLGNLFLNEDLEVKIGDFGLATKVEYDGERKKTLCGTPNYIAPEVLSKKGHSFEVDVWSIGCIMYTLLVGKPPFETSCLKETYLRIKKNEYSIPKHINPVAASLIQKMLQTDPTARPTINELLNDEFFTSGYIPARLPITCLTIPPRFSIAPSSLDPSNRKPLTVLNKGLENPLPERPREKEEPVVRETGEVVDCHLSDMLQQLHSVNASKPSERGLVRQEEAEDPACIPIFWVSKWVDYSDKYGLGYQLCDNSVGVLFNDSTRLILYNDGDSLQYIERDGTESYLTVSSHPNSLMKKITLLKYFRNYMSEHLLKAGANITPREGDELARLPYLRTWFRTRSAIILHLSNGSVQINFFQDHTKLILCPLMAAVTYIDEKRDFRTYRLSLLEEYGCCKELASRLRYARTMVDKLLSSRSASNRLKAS
pIC50: −log10 of the molar value.
measured-endpoint: pIC50

- sample-smiles: "COc1cc(C(=O)O)ccc1Nc1ncc2c(n1)N(CCc1ccccc1)CC(F)(F)C(=O)N2C"
  pIC50: "6.30 to 7.29"
- sample-smiles: "CCN1CCC(NC(=O)c2ccc(Nc3ncc4c(n3)N(C3CCCCC3)CC(F)(F)C(=O)N4C)cc2)CC1"
  pIC50: "7.30 to 9.00"

Then there is this compound:
Request: Please give the documented pIC50 of CCc1cc(C(=O)NC2CCN(CC)CC2)ccc1Nc1ncc2c(n1)N(C1CCCC1)CC(F)(F)C(=O)N2C
Result: 7.30 to 9.00
